For each of the variants below, state its self-cleavage.
B1: CPEB3 Ribozyme (parent)
chain: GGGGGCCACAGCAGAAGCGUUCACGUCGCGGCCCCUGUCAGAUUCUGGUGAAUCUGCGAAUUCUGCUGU

Variants of: B1
Experiment: self-cleavage, relative activity (ratio to wild type); higher = more cleavage; co-transcriptional
I only need the number, thanks.

Inquiry: Quick check: self-cleavage of G17C C66A ?
Reply text: 0.145

Inquiry: Subsequent entry: U55A U64A
Reply text: 0.532

Inquiry: Subsequent entry: G17U C32U
Reply text: 0.514

Inquiry: Subsequent entry: U20C C66G
Reply text: 0.179

Inquiry: Subsequent entry: G1A C66A
Reply text: 0.0751

Inquiry: Subsequent entry: U26A G50U
Reply text: 0.818

Inquiry: Subsequent entry: U62A G68U
Reply text: 0.964

Inquiry: Subsequent entry: A10C G17U
Reply text: 0.464

Inquiry: Subsequent entry: A40C G48A
Reply text: 0.882

Inquiry: Subsequent entry: G37U U55A
Reply text: 0.187

Inquiry: Subsequent entry: U49A C63U
Reply text: 0.94

Inquiry: Subsequent entry: C12U G30U
Reply text: 0.368

Inquiry: Subsequent entry: C9G G28C
Reply text: 0.149

Inquiry: Subsequent entry: G17C U38A
Reply text: 0.155

Inquiry: Subsequent entry: G1U A23C
Reply text: 0.171

Inquiry: Subsequent entry: A8U G19C
Reply text: 0.146

Inquiry: Subsequent entry: A13U
Reply text: 0.888

Inquiry: Subsequent entry: G48C U64G
Reply text: 0.974

Inquiry: Subsequent entry: C18G C66U
Reply text: 0.215

Inquiry: Subsequent entry: C35U U53C
Reply text: 0.897

Inquiry: Subsequent entry: C22G U26C
Reply text: 0.209

Inquiry: Subsequent entry: C18U U55G
Reply text: 0.39

Inquiry: Subsequent entry: G1A C22A
Reply text: 0.0619

Inquiry: Subsequent entry: G25C G56C
Reply text: 0.164

Inquiry: Subsequent entry: U20A U62G
Reply text: 0.0797

Inquiry: Subsequent entry: U36G C45U
Reply text: 0.232

Inquiry: Subsequent entry: G17A U46G
Reply text: 0.591

Inquiry: Subsequent entry: A16C U69C
Reply text: 0.82

Inquiry: Subsequent entry: C27G G56A
Reply text: 0.178

Inquiry: Subsequent entry: G56C G58U
Reply text: 0.917

Inquiry: Subsequent entry: C39G U43C
Reply text: 0.75

Inquiry: Subsequent entry: A8C U46G
Reply text: 0.982

Inquiry: Subsequent entry: G37C A42C
Reply text: 0.237

Inquiry: Subsequent entry: G3A C33A
Reply text: 0.193

Inquiry: Subsequent entry: U38C C45G
Reply text: 0.92

Inquiry: Subsequent entry: U38C C54A
Reply text: 0.61

Inquiry: Subsequent entry: C29G U43A
Reply text: 0.186

Inquiry: Subsequent entry: C9U C12U
Reply text: 1.01

Inquiry: Subsequent entry: G14A C22A
Reply text: 0.178

Inquiry: Subsequent entry: U36G G68A
Reply text: 0.214

Inquiry: Subsequent entry: C32U G37A
Reply text: 0.288

Inquiry: Subsequent entry: A15U C35G
Reply text: 0.187

Inquiry: Subsequent entry: G11C U20G
Reply text: 0.169

Inquiry: Subsequent entry: C7U C24G
Reply text: 0.225

Inquiry: Subsequent entry: G14U A59G
Reply text: 0.753

Inquiry: Subsequent entry: U36G U67G
Reply text: 0.252

Reference source for all entries: the RNAGym collection of RNA variant scans (doi:10.7554/elife.80360)
